What folding stability dG unfold was measured for each of the following?
# Assay comment: folding stability dG unfold from trypsin proteolysis; higher = more stable
Hey, just the number and the unit after it is fine.

Problem: Please report the measured folding stability dG unfold for SWKIKISIERTGDWITVKIWYDNPSELRNAIEMIAEKLGMKVEIDDVSWKRDPNGWYEATITVRIKPGMPSA [r9_102_TrROS]
Result: 3.27 kcal/mol

Problem: Supply recorded folding stability dG unfold for SAGGGMKISTVETKPESDGSIVITIKVYDANGNEIKTYTIPLKGLSNVTITIPVANNPIEVSIPATLSSAGG [r13_427_JUSTAS] here.
Result: 1.48 kcal/mol

Problem: Identify folding stability dG unfold associated with the sequence SPIILPGASTVTINATVTVEPRDPATGTVLSSRDLPVPVTVTTNADGTVTITVDVPADVPADAAVTVDLTSA [r9_90_JUSTAS]
Result: 0.239 kcal/mol

Problem: Tell me folding stability dG unfold reported for SAGGSAGGSAMSVTATVPEKPVTLTYIPPNTVTKTVIDPSTGTTTTTEVNLPPGVVPASLLLSAGGSAGGSA [r18_59_JUSTAS]
Result: 0.313 kcal/mol
